Value source: patent US20080103201A1

# Assay System: α-glucosidase (E.C.3.2.1.20)
# Assay Comment: α-Glucosidase enzyme inhibition assay (PNP-G substrate, spectrophotometric)
# Stated Conditions: pH 6.9, 37° C., 0.7 mM PNP-G substrate, 500 m units/mL enzyme
Metric: IC50
// return the numeric value with its unit appended

GET /values?item= CC(=O)OC1CCC2(C)C(CCC3(C)C2CC=C2C4CC(C)(C)CCC4(C)CCC23C)C1(C)C (stereo not drawn) [β-Amyrin acetate, 12-Oleanen-3-yl acetate] &system= α-glucosidase (E.C.3.2.1.20) returns IC50: 22.3 µM
